Target: Tyrosine-protein phosphatase non-receptor type 1 (Homo sapiens, UniProt P18031)
Sequence (P18031 whole entry): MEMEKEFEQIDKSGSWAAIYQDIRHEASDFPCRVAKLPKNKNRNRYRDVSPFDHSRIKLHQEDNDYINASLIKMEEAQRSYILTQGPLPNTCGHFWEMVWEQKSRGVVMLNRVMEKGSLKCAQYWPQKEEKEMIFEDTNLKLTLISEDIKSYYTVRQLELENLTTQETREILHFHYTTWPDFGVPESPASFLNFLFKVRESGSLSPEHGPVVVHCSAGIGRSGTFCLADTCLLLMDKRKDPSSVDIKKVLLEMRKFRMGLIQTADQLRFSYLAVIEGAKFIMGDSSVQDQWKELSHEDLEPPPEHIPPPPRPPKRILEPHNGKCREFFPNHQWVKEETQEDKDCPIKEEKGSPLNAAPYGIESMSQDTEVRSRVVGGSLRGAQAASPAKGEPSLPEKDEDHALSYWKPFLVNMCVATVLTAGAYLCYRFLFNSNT
Endpoint summary: Ki, system: Tyrosine-protein phosphatase non-receptor type 1 (Homo sapiens, UniProt P18031), multiple sources combined.

Use these answered entries as a reference point.
For this molecule ( "O=C(O)COc1c(-c2ccccc2)csc1C(=O)O" ), measured Ki is > 1000 µM

For this molecule ( "COC(=O)c1c(O)cccc1OCCCCNC(=O)[C@H](Cc1ccc(NC(=O)c2ncccc2O)cc1)NC(C)=O" ), measured Ki is > 200 µM

Continuing:
For this molecule ( CCc1cc(CC(NC(C)=O)C(=O)NCCCCC(=O)NC(Cc2ccccc2)C(N)=O)ccc1N(C(=O)C(=O)O)c1ccccc1C(=O)O (stereo not drawn) ), measured Ki is 1.3 µM
